B1: NCK2 (parent)
chain: YVERKNSLKKGSLVKNLKDTLGLG

variants of: B1; test: protein stability index of a GFP-peptide fusion (GPS, HEK-293T) (PSI 1-6); higher = more stable; settings: c terminus: a fixed tail appended;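 further: lentivirally expressed fusions sorted by FACS into six bins by GFP to DsRed ratio, PSI derived from sequencing read proportions per bin multiplied by bin number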
Exercise: for every item that follows, state its recorded protein stability index.

**Q:** Given the entry "L17Y" , report its measured protein stability index.
**A:** 2.73

**Q:** Given the entry "K15P" , report its measured protein stability index.
**A:** 1.99

**Q:** Given the entry "N6I" , report its measured protein stability index.
**A:** 2.39

**Q:** Given the entry "K5I" , report its measured protein stability index.
**A:** 1.99

**Q:** Given the entry "K10F" , report its measured protein stability index.
**A:** 2.48

**Q:** Given the entry "S12W" , report its measured protein stability index.
**A:** 2.17

**Q:** Given the entry "T20A" , report its measured protein stability index.
**A:** 2.33

**Q:** Given the entry "D19V" , report its measured protein stability index.
**A:** 1.78

**Q:** Given the entry "N6S" , report its measured protein stability index.
**A:** 2.1

**Q:** Given the entry "L13R" , report its measured protein stability index.
**A:** 1.99

**Q:** Given the entry "E3V" , report its measured protein stability index.
**A:** 1.9

**Q:** Given the entry "V14I" , report its measured protein stability index.
**A:** 2.35

**Q:** Given the entry "N16L" , report its measured protein stability index.
**A:** 2.14

**Q:** Given the entry "K18S" , report its measured protein stability index.
**A:** 2.07

**Q:** Given the entry "E3F" , report its measured protein stability index.
**A:** 2.01

**Q:** Given the entry "V14M" , report its measured protein stability index.
**A:** 2.46

**Q:** Given the entry "V2S" , report its measured protein stability index.
**A:** 2.94

**Q:** Given the entry "L21D" , report its measured protein stability index.
**A:** 2.81

**Q:** Given the entry "T20C" , report its measured protein stability index.
**A:** 1.82

**Q:** Given the entry "D19G" , report its measured protein stability index.
**A:** 1.92

**Q:** Given the entry "K9P" , report its measured protein stability index.
**A:** 2.05

**Q:** Given the entry "G24F" , report its measured protein stability index.
**A:** 1.48

The reported numbers originate from the supplement of paper PMC10567573.
